Where do the numbers come from? From patent US12509451B2.

Biological target: recombinant human CD38 Protein (Homo sapiens, UniProt P28907)
Construct: purchased R&D System
Assay: Fluorescence-based NAD+ cyclase activity assay with human recombinant CD38 protein (Assay 2)
Assay type: biochemical
Conditions: read-out: Assay 2 Arithmetic mean IC50
pIC50: −log10 of the molar value.
Recorded pIC50 values for a group of compounds are listed next.

Study these solved cases before continuing.
Fill in: pIC50 of "O=C(Nc1ccncn1)c1cccc(-n2ccnc2)n1" is ___ 5.00 to 6.00

Fill in: pIC50 of "Cn1ccnc1-c1cccc(C(=O)Nc2ccc(C(F)(F)F)nc2)n1" is ___ 6.00 to 7.29

Please give the measured pIC50 for this compound: "Cc1cc(NC(=O)c2cccc(-n3ccnc3)n2)cc(C)n1" 5.00 to 6.00

Next:
Give its pIC50 value. Item: "Cc1cc(NC(=O)c2cccc(-n3ccnc3)n2)cc(C#N)n1" 6.00 to 7.29

Item under review: "CN(C)CCOc1cc(C(=O)Nc2ccnc(C(F)(F)F)c2)nc(-n2ccnc2)c1" . Reported pIC50? 6.00 to 7.29

pIC50 for "CNC(=O)c1cc(NC(=O)c2cc(C)cc(-n3ccnc3)n2)ccn1" ? 6.00 to 7.29

Any idea what pIC50 was measured for "O=C(Nc1ccnc(C(F)(F)F)c1)c1cc(C2CC2)nc(-n2ccnc2)n1" ? 6.00 to 7.29

# input compound: "CC1(Oc2cc(C(=O)Nc3ccnc(C(F)(F)F)c3)nc(-n3ccnc3)c2)COC1" ; wanted: its pIC50 6.00 to 7.29

Recorded pIC50 for "Cn1ccnc1-c1cccc(C(=O)Nc2cccnc2)n1" , please? 5.00 to 6.00

----------
pIC50 listing for selected compounds.
Biological target: CD38 NAD+ hydrolase activity in NH7-dCas9 cells (Jurkat clone) (Homo sapiens, UniProt P28907)
Construct: The assay utilized CD38 expressing NH7-dCas9 cells (Jurkat clone)
Experiment: Fluorescence-based NAD+ hydrolase activity assay with human T cell line NH7-dCas9 cells-Jurkat clone (Assay 1)
Settings: read-out: Assay 1 Arithmetic mean IC50
pIC50: −log10 of the molar value.

Sample answers from the record:
Which pIC50 is listed for "Cc1cc(C(=O)Nc2ccncc2)nc(-n2ccnc2)n1" ? > 9.00

Please report the recorded pIC50 for "Cc1cc(C(=O)Nc2ccncc2)nc(-c2cncn2C)c1" . > 9.00

Item "O=C(Nc1ccnc(F)c1)c1cccc(-n2ccnc2)n1" has what recorded pIC50? > 9.00

Dear colleague, I am looking for the recorded pIC50 of the following compound: "CC(=O)Nc1ccc(NC(=O)c2cccc(-n3ccnc3)n2)cn1" 7.30 to 9.00

Continuing:
Recorded pIC50 for "Cc1cc(C(=O)Nc2ccncc2)nc(-c2nccn2C)c1" , please? > 9.00

Which pIC50 is listed for "Cc1cc(C(=O)Nc2ccnc(C(N)=O)c2)nc(-n2ccnc2)c1" ? > 9.00

# get_value(readout='pIC50', item= "Cc1cc(NC(=O)c2cccc(-n3ccnc3)n2)cc(C)n1" ) > 9.00

Look up pIC50 for this compound: "O=C(Nc1cccnc1)c1ccc(F)c(-n2ccnc2)n1" 7.30 to 9.00

I'd like to know its pIC50. The compound in question is "O=C(O)c1ccc(NC(=O)c2cccc(-n3ccnc3)n2)cn1" 7.30 to 9.00

----------
Target: CD38 NAD+ hydrolase activity in NH7-dCas9 cells (Jurkat clone) (Homo sapiens, UniProt P28907)
Construct: The assay utilized CD38 expressing NH7-dCas9 cells (Jurkat clone)
Sequence (P28907 1-300): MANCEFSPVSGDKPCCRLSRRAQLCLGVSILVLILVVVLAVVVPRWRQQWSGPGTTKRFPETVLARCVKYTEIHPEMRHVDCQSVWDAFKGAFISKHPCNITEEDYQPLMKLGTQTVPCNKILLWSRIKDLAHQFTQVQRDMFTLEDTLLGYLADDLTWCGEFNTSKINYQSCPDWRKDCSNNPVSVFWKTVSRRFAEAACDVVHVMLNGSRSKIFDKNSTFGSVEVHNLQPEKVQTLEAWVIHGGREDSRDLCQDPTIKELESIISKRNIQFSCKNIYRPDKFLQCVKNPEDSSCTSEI
Experiment: Fluorescence-based NAD+ hydrolase activity assay with human T cell line NH7-dCas9 cells-Jurkat clone (Assay 1)
Details: read-out: Assay 1 Arithmetic mean IC50
pIC50: −log10 of the molar value.
Quick list: pIC50 per entry.

For orientation, consider the following solved cases.
Consider the compound "Cn1cncc1-c1cccc(C(=O)Nc2cccnc2)n1" and give its measured pIC50. 7.30 to 9.00

Look up pIC50: "COCCOc1cc(C(=O)Nc2ccnc(C(F)(F)F)c2)nc(-n2ccnc2)n1" > 9.00

For the compound "O=C(Nc1ccnc(C(F)(F)F)c1)c1cc(OCC2CCOCC2)cc(-n2ccnc2)n1" , what pIC50 is on record? > 9.00

Report pIC50 for "CN(C)CCOc1cc(C(=O)Nc2ccnc(C(F)(F)F)c2)nc(-n2ccnc2)c1" please. > 9.00

From here, focus on the item given below.
# get_value(readout='pIC50', item= "Nc1ccc(-n2ccnc2)nc1C(=O)Nc1ccnc(F)c1" ) > 9.00

----------
Biological target: human CD38 enzyme in primary human M1 macrophages (Homo sapiens, UniProt P28907)
Construct: The assay utilized whole primary human macrophages (from healthy donors); endogenous in cells
Sequence (P28907 1-300): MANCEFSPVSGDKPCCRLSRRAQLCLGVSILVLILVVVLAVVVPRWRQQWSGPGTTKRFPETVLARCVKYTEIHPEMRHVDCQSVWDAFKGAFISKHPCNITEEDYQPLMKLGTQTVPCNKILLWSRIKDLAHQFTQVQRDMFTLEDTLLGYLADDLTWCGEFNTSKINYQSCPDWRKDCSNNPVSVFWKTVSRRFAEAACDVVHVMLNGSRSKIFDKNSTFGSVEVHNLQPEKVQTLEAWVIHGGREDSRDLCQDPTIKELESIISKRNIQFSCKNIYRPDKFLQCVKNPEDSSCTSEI
Assay: NAD+ hydrolase activity assay in primary human M1 macrophages
Conditions: primary human M1 macrophages (LPS stimulated)
Protocol: The in vitro potency of Compound 35 against the human CD38 enzyme was determined by a fluorescence-based NAD+ hydrolase activity assay using the NAD+ analog nicotinamide 1,N^6-etheno-adenine dinucleotide (εNAD+) as substrate. […] The emission of fluorescence was measured at 410-20 nm at 37° C. every minute for 1 hr. The NAD+ hydrolase activity was calculated as the slope of the linear portion of the fluorescence-time curve and used to calculate the IC50 value. […]
property.name: IC50 (nM)
Report the figure in nM without appending any unit label.

Fill in: IC50 of COc1cc(C(=O)Nc2ccnc(C(F)(F)F)c2)nc(-n2ccnc2)c1 [Compound 35] is ___ 2.25

----------
Target: recombinant human CD38 Protein (Homo sapiens, UniProt P28907)
Construct: purchased R&D System
Sequence (P28907 1-300): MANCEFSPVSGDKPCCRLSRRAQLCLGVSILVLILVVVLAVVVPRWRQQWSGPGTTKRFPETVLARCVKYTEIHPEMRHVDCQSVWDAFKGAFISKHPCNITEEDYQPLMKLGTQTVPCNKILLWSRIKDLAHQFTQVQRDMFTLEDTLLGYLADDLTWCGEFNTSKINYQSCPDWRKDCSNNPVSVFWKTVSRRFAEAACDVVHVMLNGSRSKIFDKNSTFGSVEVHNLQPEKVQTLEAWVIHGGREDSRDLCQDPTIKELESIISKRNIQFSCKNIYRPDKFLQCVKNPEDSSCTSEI
Test: Fluorescence-based NAD+ hydrolase activity assay with human recombinant CD38 protein (Assay 3)
Type: biochemical
Settings: read-out: Assay 3 Arithmetic mean IC50
pIC50: −log10 of the molar value.
Quick reference for pIC50 among some molecules

Identify the measured pIC50 of "Nc1ccc(-n2ccnc2)nc1C(=O)Nc1ccnc(C(F)(F)F)c1" for recombinant human CD38 Protein (Homo sapiens, UniProt P28907). 7.30 to 9.00

Lookup: pIC50 / recombinant human CD38 Protein (Homo sapiens, UniProt P28907) / "O=C(Nc1cccnc1)c1cncc(-n2ccnc2)n1" > 9.00

Next:
Please tell me: pIC50 of "Nc1cc(C(=O)Nc2cccnc2)nc(-n2ccnc2)c1" , system recombinant human CD38 Protein (Homo sapiens, UniProt P28907)? 7.30 to 9.00

Query for recombinant human CD38 Protein (Homo sapiens, UniProt P28907): what pIC50 does the record show for "Cc1cc(C(=O)Nc2ccnc(C(N)=O)c2)nc(-n2ccnc2)c1" ? > 9.00

Record lookup: for recombinant human CD38 Protein (Homo sapiens, UniProt P28907), what pIC50 belongs to "Cn1cncc1-c1cccc(C(=O)Nc2cccnc2)n1" ? 7.30 to 9.00

----------
Target: recombinant human CD38 Protein (Homo sapiens, UniProt P28907)
Construct: purchased R&D System
Sequence (P28907 1-300): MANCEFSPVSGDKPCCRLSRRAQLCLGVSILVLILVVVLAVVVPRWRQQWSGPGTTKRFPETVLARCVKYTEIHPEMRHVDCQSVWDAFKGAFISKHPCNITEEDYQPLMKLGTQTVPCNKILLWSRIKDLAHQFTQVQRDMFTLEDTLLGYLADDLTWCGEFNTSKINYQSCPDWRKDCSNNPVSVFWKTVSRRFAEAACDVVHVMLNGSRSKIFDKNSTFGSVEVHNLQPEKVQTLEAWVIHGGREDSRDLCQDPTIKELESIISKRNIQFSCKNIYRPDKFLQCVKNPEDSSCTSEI
Experiment: Fluorescence-based NAD+ hydrolase activity assay with human recombinant CD38 protein (Assay 3)
Type: biochemical
Details: read-out: Assay 3 Arithmetic mean IC50
property.name: IC50

Example results:
Which value of IC50 has been reported for O=C(Nc1ccnc(C(F)(F)F)c1)c1cccc(-n2ccnc2)n1 [Compound 28] in the records? 1 to 50 nM

Requested field: IC50. Item: COc1cc(C(=O)Nc2ccnc(C(F)(F)F)c2)nc(-n2ccnc2)c1 [Compound 35] 1 to 50 nM

More entries:
Which IC50 value belongs to O=C(Nc1ccnc(C(F)(F)F)c1)c1cc(OC2CC2)cc(-n2ccnc2)n1 [Compound 32] ? < 1 nM

Given CC(=O)N(C)c1ccc(NC(=O)c2cccc(-n3ccnc3)n2)cn1 [Compound 15] , state its recorded IC50. 1 to 50 nM

# lookup: IC50 of COc1ccc(NC(=O)c2cccc(-n3ccnc3)n2)cn1 [Compound 18] 1 to 50 nM
